Assay: Binding affinity to Fe3+ assessed as formation of Fe3+-compound complex at 100 ug/disk by CAS agar disk diffusion method
Calls of active or inactive are those of the source. The rule behind the calls is not given here.
Permitted responses: active, inactive

Hello, I am checking results. What call was entered for `C/C(=C\C(=O)N(O)CCC[C@@H]1NC(=O)[C@H](CCCN(O)C(=O)/C=C(\C)CCO)NC1=O)CCO` ?
active

How about `C/C(=C\C(=O)N(O)CCC[C@@H]1NC(=O)[C@H](CCCN(O)C(=O)/C=C(\C)CCO[C@@H]2O[C@H](CO)[C@@H](O)[C@H](O)[C@@H]2O)NC1=O)CCO` ?
active

====

Assay: Binding affinity to Fe3+ assessed as formation of Fe3+-compound complex incubated for 22 hrs by liquid CAS assay
Structures can show the parent of a compound that is named as a salt.
Listing: pEC50 of selected compounds
# log scale: pEC50 equals minus log10 of the concentration in mol/L

// solved cases for pEC50 follow
C/C(=C\C(=O)N(O)CCC[C@@H]1NC(=O)[C@H](CCCN(O)C(=O)/C=C(\C)CCO[C@@H]2O[C@H](CO)[C@@H](O)[C@H](O)[C@@H]2O)NC1=O)CCOC(=O)[C@H](CCCN(O)C(=O)/C=C(\C)CCO[C@@H]1O[C@H](CO)[C@@H](O)[C@H](O)[C@@H]1O)[N+](C)(C)[O-] :: 4.80
CC(=O)N(O)CCCCCNC(=O)CCC(=O)N(O)CCCCCNC(=O)CCC(=O)N(O)CCCCCN [DEFEROXAMINE MESYLATE] :: 4.70

Now consider the entry below.
Entry under review: `C/C(=C\C(=O)N(O)CCC[C@@H]1NC(=O)[C@H](CCCN(O)C(=O)/C=C(\C)CCO)NC1=O)CCO` . Reported pEC50?
4.89

====

Assay: Binding affinity to Fe3+ assessed as formation of Fe3+-compound complex at 100 ug/disk by CAS agar disk diffusion method
The source made the active and inactive calls. The calls are words filed in the database; no cut-off is given here.
Log the outcome using a class from YES = active, NO = inactive

See these solved cases before continuing.
CO[C@H]1[C@H](O)[C@H](O)[C@H](OCC[C@@](C)(O)CC(=O)N(O)CCC[C@@H]2NC(=O)[C@H](CCCN(O)C(=O)/C=C(\C)CCO)NC2=O)O[C@@H]1CO :: YES
CO[C@H]1[C@H](O)[C@H](O)[C@H](OCC/C(C)=C/C(=O)N(O)CCC[C@@H]2NC(=O)[C@H](CCCN(O)C(=O)/C=C(\C)CCO)NC2=O)O[C@@H]1CO :: YES
C/C(=C\C(=O)N(O)CCC[C@@H]1NC(=O)[C@H](CCCN(O)C(=O)C[C@](C)(O)CCO)NC1=O)CCO :: YES
C/C(=C\C(=O)N(O)CCC[C@@H](N)C(=O)O)CCO :: NO
CO[C@H]1[C@H](O)[C@H](O)[C@H](OCC/C(C)=C/C(=O)N(O)CCC[C@@H](C(=O)O)N(C)C)O[C@@H]1CO :: NO
C[C@@](O)(CCO)CC(=O)N(O)CCC[C@@H]1NC(=O)[C@H](CCCN(O)C(=O)C[C@](C)(O)CCO)NC1=O :: YES

Returns: the outcome recorded for `CO[C@H]1[C@H](O)[C@H](O)[C@H](OCC/C(C)=C/C(=O)N(O)CCC[C@@H](C(=O)O)[N+](C)(C)[O-])O[C@@H]1CO` in this assay.
NO
